# test.system: HIPK4 (human)
# experiment.notes: KINOMEscan competition binding
# experimental.conditions: compound 10.0 µM
This listing pairs compounds with measured kinase still bound, per cent of control.

>  <molecule.smiles>
O=c1cc(N2CCOCC2)oc2c(-c3cccc4c3sc3ccccc34)cccc12

>  <test.system>
HIPK4 (human)

>  <kinase still bound, per cent of control [%]>
74

$$$$
>  <molecule.smiles>
NC(=O)Nc1cc(-c2cccc(F)c2)sc1C(=O)N[C@@H]1CCCNC1

>  <test.system>
HIPK4 (human)

>  <kinase still bound, per cent of control [%]>
38

$$$$
>  <molecule.smiles>
O=C(Nc1cccc(Nc2ncc(Br)c(NCCc3cnc[nH]3)n2)c1)N1CCCC1

>  <test.system>
HIPK4 (human)

>  <kinase still bound, per cent of control [%]>
2

$$$$
